testProtocol: recombinant UMI read abundance after kanamycin selection (control-corrected) (log10(CPM+1)); higher = more efficient recombination; extreme values may be limits of the assay; sequences stand for … in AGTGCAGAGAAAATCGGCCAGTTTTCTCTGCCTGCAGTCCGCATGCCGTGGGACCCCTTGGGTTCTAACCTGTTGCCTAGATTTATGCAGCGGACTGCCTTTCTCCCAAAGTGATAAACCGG…AGGTTGGTTTCACT; site = the 11-nt donor;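 also: IS621 bridge recombinase in Escherichia coli cells against a fixed T5 target plasmid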
parameterMeasured: recombinant UMI read abundance (log10)
Keep it simple and answer with nothing but the number.

The sequence CCGTTGGCATGGACCGGTTTTCCCGGTAATCCGTATTTGTG (site CCGTTCGCTCA) showed recombinant UMI read abundance (log10) equal to 0.0171

What the record says about CTTCTCCCATGGACCGGTTTTCCCGGTAATCCGTATTTGTA (site CTTCTCTCTTA) : recombinant UMI read abundance (log10) is 0.837

Quick note, recombinant UMI read abundance (log10) for TGCACACCATGGACCGGTTTTCCCGGTAATCCGTATTTGAC (site TGGACACCTGT) landed at 0

Continuing:
Entry TTAGCTGCATGGACCGGTTTTCCCGGTAATCCGTATTTGTA (site TTAGCTGCTAA) ; recombinant UMI read abundance (log10) = 0.0184

CGCTCATCATGGACCGGTTTTCCCGGTAATCCGTATTTGCT (site CGTTCATCTAG) has a reported recombinant UMI read abundance (log10) of 1.35

recombinant UMI read abundance (log10) in this record for TACTGGACATGGACCGGTTTTCCCGGTAATCCGTATTTGCT (site TACTTGACTAG) : 0.00209

// field: recombinant UMI read abundance (log10); key: AATTATACATGGACCGGTTTTCCCGGTAATCCGTATTTGGA (site AATTATCCTTC) ; value = 0.0125

recombinant UMI read abundance (log10) for GTGGTGGCATGGACCGGTTTTCCCGGTAATCCGTATTTGTG (site GTGGCGGCTCA) is 0.0357

Please fill in: recombinant UMI read abundance (log10) reported for CCCATCTCATGGACCGGTTTTCCCGGTAATCCGTATTTGTC (site CCCATCTCTGA) = 1.35
